Where do these numbers come from? They come from patent US10463658B2.

# assayed system: FLT3-ITD (Homo sapiens, UniProt P36888)
# Sequence (P36888 with tags, fused parts or gaps DUP594-600): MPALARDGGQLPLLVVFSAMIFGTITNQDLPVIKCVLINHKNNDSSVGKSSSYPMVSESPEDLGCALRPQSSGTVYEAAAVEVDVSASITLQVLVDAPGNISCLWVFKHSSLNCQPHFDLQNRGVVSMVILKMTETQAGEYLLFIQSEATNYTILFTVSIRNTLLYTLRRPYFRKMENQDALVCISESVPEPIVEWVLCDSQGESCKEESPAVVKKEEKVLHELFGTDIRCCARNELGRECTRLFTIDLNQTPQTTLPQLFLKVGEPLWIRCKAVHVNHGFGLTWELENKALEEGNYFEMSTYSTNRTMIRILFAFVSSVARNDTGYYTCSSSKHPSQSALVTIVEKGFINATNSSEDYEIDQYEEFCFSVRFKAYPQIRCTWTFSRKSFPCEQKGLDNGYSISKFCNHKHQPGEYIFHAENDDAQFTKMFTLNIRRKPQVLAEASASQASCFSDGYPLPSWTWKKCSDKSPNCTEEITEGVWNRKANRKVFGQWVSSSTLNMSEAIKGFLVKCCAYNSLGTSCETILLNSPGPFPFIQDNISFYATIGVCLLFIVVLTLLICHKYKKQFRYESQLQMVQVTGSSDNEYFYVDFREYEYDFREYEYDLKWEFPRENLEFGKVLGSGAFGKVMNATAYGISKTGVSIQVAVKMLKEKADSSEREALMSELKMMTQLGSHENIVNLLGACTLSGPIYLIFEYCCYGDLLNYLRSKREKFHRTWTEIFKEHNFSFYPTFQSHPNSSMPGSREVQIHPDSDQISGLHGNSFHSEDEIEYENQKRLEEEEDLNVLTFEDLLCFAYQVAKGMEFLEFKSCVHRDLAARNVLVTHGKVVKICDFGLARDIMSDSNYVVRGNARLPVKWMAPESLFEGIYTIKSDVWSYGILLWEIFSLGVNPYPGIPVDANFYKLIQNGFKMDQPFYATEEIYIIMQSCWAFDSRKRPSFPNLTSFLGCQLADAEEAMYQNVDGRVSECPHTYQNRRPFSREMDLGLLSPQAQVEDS
# assay overview: Inhibition of FLT3-ITD phosphorylation by western blot in Molm-13 cells
# measurement parameters: tosylate salt, read-out: IC50, inhibition of phosphorylation of the FLT3-ITD receptor
readout kind: IC50

- compound: "COCCOc1ccc2c(c1)ncn2-c1ccc2cccc(N3CCC(N)CC3)c2n1 [CP-673,451]"
  readout kind: "IC50"
  experimental value: "700 pM"

----------
# System: Molm 13-RES-luc cells that expressed FLT3-ITD/D835Y
# assay overview: MTT assay in tandutinib-resistant Molm 13-RES-luc cells
# Type: cell-based
# measurement parameters: Homo sapiens, tandutinib resistant Molm 13 cells, mean of 3 studies with 6 replicates each (n=18), read-out: IC50 pFLT3 (text: cell viability, MTT assay)
pIC50: −log10 of the molar value.

- compound: "CC1(COc2ccc3c(c2)ncn3-c2ccc3cccc(N4CCC(N)CC4)c3n2)COC1 [Crenolanib, reference compound]"
  pIC50: 8.48
- compound: "COCCOc1ccc2c(c1)ncn2-c1ccc2cccc(N3CCC(N)CC3)c2n1"
  pIC50: 8.48
